- test.description: In vitro skin permeation study, Franz diffusion cell method
- Type: in vitro ADME, human
- test.parameters: µg per g VVWE, human epidermis, Franz cell, 150 mg VVWE, 48 h, receiver phase
Please respond with reported Permeated Amount ± SD for every item in the list.
Response body: numeric value in µg/g, unit text excluded.

What does the record list as Permeated Amount ± SD for O=c1c(O[C@@H]2O[C@H](CO)[C@@H](O)[C@H](O)[C@H]2O)c(-c2ccc(O)cc2)oc2cc(O)cc(O)c12 [Kaempferol 3-O-glucoside] ?
2.09

Then OC[C@H]1O[C@@H](Oc2cc3c(O)cc(O)cc3[o+]c2-c2cc(O)c(O)c(O)c2)[C@H](O)[C@@H](O)[C@@H]1O [Delphinidin 3-O-glucoside] ?
0.48

Then OC[C@H]1O[C@@H](Oc2cc3c(O)cc(O)cc3[o+]c2-c2ccc(O)c(O)c2)[C@H](O)[C@@H](O)[C@@H]1O [Cyanidin 3-O-glucoside] ?
1.63

Then O=c1c(O[C@@H]2O[C@H](CO)[C@H](O)[C@H](O)[C@H]2O)c(-c2ccc(O)c(O)c2)oc2cc(O)cc(O)c12 [Hyperoside] ?
0.47

Then COc1cc(-c2[o+]c3cc(O)cc(O)c3cc2O[C@@H]2O[C@H](CO)[C@@H](O)[C@H](O)[C@H]2O)ccc1O [Peonidin 3-O-glucoside] ?
2.17

Then COc1cc(-c2[o+]c3cc(O)cc(O)c3cc2O[C@@H]2O[C@H](CO)[C@@H](O)[C@H](O)[C@H]2O)cc(OC)c1O [Malvidin 3-O-glucoside] ?
0.92

Then O=c1c(O[C@@H]2O[C@H](CO)[C@@H](O)[C@H](O)[C@H]2O)c(-c2ccc(O)c(O)c2)oc2cc(O)cc(O)c12 [Quercetin 3-O-glucoside] ?
8.74

Then C[C@@H]1O[C@@H](OC[C@H]2O[C@@H](Oc3c(-c4ccc(O)c(O)c4)oc4cc(O)cc(O)c4c3=O)[C@H](O)[C@@H](O)[C@@H]2O)[C@H](O)[C@H](O)[C@H]1O ?
0.30

Then O=C(/C=C/c1ccc(O)c(O)c1)O[C@@H](C(=O)O)[C@@H](O)C(=O)O ?
47.59

* * *

- test.description: In vitro skin permeation study, Franz diffusion cell method
- Type: in vitro ADME, human
- test.parameters: human, human epidermis, Franz cell, 150 mg VVWE, four replicates; read-out: Retained Amount in the Epidermidis (% Recovery) (converted)
- From the text: VVWE was characterized by a validated HPLC-DAD method as previously described. Briefly, two different HPLC methods coupled with a Diode Array Detector (DAD) have been used, the first for anthocyanin detection at 520 nm by the use of a Synergi 4u MAX-RP 80 Å column (250 × 4.60 mm × 4 μm) (Phenomenex, Torrance, CA, USA) and the second for flavonols and caffeic acid derivative detection at 360 nm by Synergi 4u MAX-RP 80 Å column (250 × 2 mm × 4 μm) (Phenomenex, Torrance, CA, USA). […]
Please respond with reported recovery for every item in the list.
Response body: numeric value in %, unit text excluded.

What does the record list as recovery for C[C@@H]1O[C@@H](OC[C@H]2O[C@@H](Oc3c(-c4ccc(O)c(O)c4)oc4cc(O)cc(O)c4c3=O)[C@H](O)[C@@H](O)[C@@H]2O)[C@H](O)[C@H](O)[C@H]1O ?
0.061

Then O=C(/C=C/c1ccc(O)c(O)c1)O[C@@H](C(=O)O)[C@@H](O)C(=O)O ?
0.102

Then O=c1c(O[C@@H]2O[C@H](CO)[C@H](O)[C@H](O)[C@H]2O)c(-c2ccc(O)c(O)c2)oc2cc(O)cc(O)c12 [Hyperoside] ?
0.058

Then O=c1c(O[C@@H]2O[C@H](CO)[C@@H](O)[C@H](O)[C@H]2O)c(-c2ccc(O)c(O)c2)oc2cc(O)cc(O)c12 [Quercetin 3-O-glucoside] ?
0.063

* * *

- test.description: In vitro skin permeation study, Franz diffusion cell method
- Type: in vitro ADME, human
- test.parameters: human epidermis, Franz cell, 150 mg VVWE, four replicates
Respond with yes for Retained Amount in the Epidermidis (% Recovery) values of 0.02% and above, no for values below.

Exam item: decide whether the reported Retained Amount in the Epidermidis (% Recovery) for COc1cc(-c2[o+]c3cc(O)cc(O)c3cc2O[C@@H]2O[C@H](CO)[C@@H](O)[C@H](O)[C@H]2O)cc(OC)c1O [Malvidin 3-O-glucoside] is at least 0.02%.
yes

Then OC[C@H]1O[C@@H](Oc2cc3c(O)cc(O)cc3[o+]c2-c2ccc(O)c(O)c2)[C@H](O)[C@@H](O)[C@@H]1O [Cyanidin 3-O-glucoside] ?
no

Then O=c1c(O[C@@H]2O[C@H](CO)[C@@H](O)[C@H](O)[C@H]2O)c(-c2ccc(O)cc2)oc2cc(O)cc(O)c12 [Kaempferol 3-O-glucoside] ?
yes

Then COc1cc(-c2[o+]c3cc(O)cc(O)c3cc2O[C@@H]2O[C@H](CO)[C@@H](O)[C@H](O)[C@H]2O)ccc1O [Peonidin 3-O-glucoside] ?
yes

Then OC[C@H]1O[C@@H](Oc2cc3c(O)cc(O)cc3[o+]c2-c2cc(O)c(O)c(O)c2)[C@H](O)[C@@H](O)[C@@H]1O [Delphinidin 3-O-glucoside] ?
no

* * *

- test.description: In vitro skin permeation study, Franz diffusion cell method
- Assay type: in vitro ADME, human
- test.parameters: human, human epidermis, Franz cell, 150 mg VVWE, four replicates; read-out: Permeated Amount (% Recovery) (converted)
quantity.kind: recovery (%)
Response body: numeric value in %, unit text excluded.

What does the record list as recovery for O=C(/C=C/c1ccc(O)c(O)c1)O[C@@H](C(=O)O)[C@@H](O)C(=O)O ?
0.476

Then C[C@@H]1O[C@@H](OC[C@H]2O[C@@H](Oc3c(-c4ccc(O)c(O)c4)oc4cc(O)cc(O)c4c3=O)[C@H](O)[C@@H](O)[C@@H]2O)[C@H](O)[C@H](O)[C@H]1O ?
0.023

Then O=c1c(O[C@@H]2O[C@H](CO)[C@H](O)[C@H](O)[C@H]2O)c(-c2ccc(O)c(O)c2)oc2cc(O)cc(O)c12 [Hyperoside] ?
0.02

Then O=c1c(O[C@@H]2O[C@H](CO)[C@@H](O)[C@H](O)[C@H]2O)c(-c2ccc(O)c(O)c2)oc2cc(O)cc(O)c12 [Quercetin 3-O-glucoside] ?
0.04

* * *

- test.description: In vitro skin permeation study, Franz diffusion cell method
- Assay type: in vitro ADME, human
- test.parameters: human epidermis, Franz cell, 150 mg VVWE, four replicates
quantity.kind: Permeated Amount (% Recovery) (%)
Response body: numeric value in %, unit text excluded.

What does the record list as Permeated Amount (% Recovery) for OC[C@H]1O[C@@H](Oc2cc3c(O)cc(O)cc3[o+]c2-c2cc(O)c(O)c(O)c2)[C@H](O)[C@@H](O)[C@@H]1O [Delphinidin 3-O-glucoside] ?
0.050

Then COc1cc(-c2[o+]c3cc(O)cc(O)c3cc2O[C@@H]2O[C@H](CO)[C@@H](O)[C@H](O)[C@H]2O)ccc1O [Peonidin 3-O-glucoside] ?
0.114

Then COc1cc(-c2[o+]c3cc(O)cc(O)c3cc2O[C@@H]2O[C@H](CO)[C@@H](O)[C@H](O)[C@H]2O)cc(OC)c1O [Malvidin 3-O-glucoside] ?
0.072

Then O=c1c(O[C@@H]2O[C@H](CO)[C@@H](O)[C@H](O)[C@H]2O)c(-c2ccc(O)cc2)oc2cc(O)cc(O)c12 [Kaempferol 3-O-glucoside] ?
0.055

Then OC[C@H]1O[C@@H](Oc2cc3c(O)cc(O)cc3[o+]c2-c2ccc(O)c(O)c2)[C@H](O)[C@@H](O)[C@@H]1O [Cyanidin 3-O-glucoside] ?
0.071

* * *

- test.description: In vitro skin permeation study, Franz diffusion cell method
- Assay type: in vitro ADME, human
- test.parameters: µg per g VVWE, human epidermis, Franz cell, 150 mg VVWE
- Source text: VVWE was characterized by a validated HPLC-DAD method as previously described. Briefly, two different HPLC methods coupled with a Diode Array Detector (DAD) have been used, the first for anthocyanin detection at 520 nm by the use of a Synergi 4u MAX-RP 80 Å column (250 × 4.60 mm × 4 μm) (Phenomenex, Torrance, CA, USA) and the second for flavonols and caffeic acid derivative detection at 360 nm by Synergi 4u MAX-RP 80 Å column (250 × 2 mm × 4 μm) (Phenomenex, Torrance, CA, USA). […]
quantity.kind: Retained Amount in the Epidermidis ± SD (µg/g)
Response body: numeric value in µg/g, unit text excluded.

What does the record list as Retained Amount in the Epidermidis ± SD for O=c1c(O[C@@H]2O[C@H](CO)[C@H](O)[C@H](O)[C@H]2O)c(-c2ccc(O)c(O)c2)oc2cc(O)cc(O)c12 [Hyperoside] ?
1.34

Then O=c1c(O[C@@H]2O[C@H](CO)[C@@H](O)[C@H](O)[C@H]2O)c(-c2ccc(O)c(O)c2)oc2cc(O)cc(O)c12 [Quercetin 3-O-glucoside] ?
13.58

Then O=C(/C=C/c1ccc(O)c(O)c1)O[C@@H](C(=O)O)[C@@H](O)C(=O)O ?
10.20

Then C[C@@H]1O[C@@H](OC[C@H]2O[C@@H](Oc3c(-c4ccc(O)c(O)c4)oc4cc(O)cc(O)c4c3=O)[C@H](O)[C@@H](O)[C@@H]2O)[C@H](O)[C@H](O)[C@H]1O ?
0.80

Then COc1cc(-c2[o+]c3cc(O)cc(O)c3cc2O[C@@H]2O[C@H](CO)[C@@H](O)[C@H](O)[C@H]2O)cc(OC)c1O [Malvidin 3-O-glucoside] ?
0.29

Then O=c1c(O[C@@H]2O[C@H](CO)[C@@H](O)[C@H](O)[C@H]2O)c(-c2ccc(O)cc2)oc2cc(O)cc(O)c12 [Kaempferol 3-O-glucoside] ?
3.53

Then OC[C@H]1O[C@@H](Oc2cc3c(O)cc(O)cc3[o+]c2-c2ccc(O)c(O)c2)[C@H](O)[C@@H](O)[C@@H]1O [Cyanidin 3-O-glucoside] ?
0.30

Then OC[C@H]1O[C@@H](Oc2cc3c(O)cc(O)cc3[o+]c2-c2cc(O)c(O)c(O)c2)[C@H](O)[C@@H](O)[C@@H]1O [Delphinidin 3-O-glucoside] ?
0.04

Then COc1cc(-c2[o+]c3cc(O)cc(O)c3cc2O[C@@H]2O[C@H](CO)[C@@H](O)[C@H](O)[C@H]2O)ccc1O [Peonidin 3-O-glucoside] ?
0.58
